Exercise: state measured composite z-score for each of the molecules provided.
Tested on: wheat germ agglutinin (Triticum aestivum), Alexa647-labelled
Experiment: wheat germ agglutinin binders on compound microarrays, profiling panel, artefact control for SMM control-protein annotation, biochemical, small-molecule microarray, 635/667 nm fluorescence (AID 1140);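 also: score merges 667 nm feature emission with signal to noise over triplicate slides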
Conditions: WGA-A647 binding, 635 nm fluorescence, higher = more signal

Hey, can you go through the list below and give me composite z-score for every item?
1. O=C1O[C@H](c2ccccc2)[C@H](c2ccccc2)N2[C@H]1[C@@H](C(=O)O)[C@]1(C(=O)Nc3ccccc31)[C@H]2c1ccc(OCCO)cc1
2. COC(=O)[C@]1(Cc2ccccc2N=[N+]=[N-])N=C(c2ccc(OCCCO)cc2)O[C@@H]1c1ccccc1CN=[N+]=[N-]
3. Cc1cccc([C@H]2C[C@H]3C(Br)=C[C@@]2(CO)C(=O)[C@]32CO2)c1
4. COc1ccc([Si](C)(C)[C@@H]2[C@@H](CC(=O)N(CCO)Cc3ccccc3)O[C@]3(C(=O)N(Cc4cccc(I)c4)c4ccccc43)[C@H]2C)cc1

output:
1. 0.677
2. 0.0031
3. -0.549
4. 0.618

Hey, can you go through the list below and give me composite z-score for every item?
1. COc1c(C)cc(-c2cc3c(c(CCc4ccccc4)n2)[Si](C(C)C)(C(C)C)O[C@H]3c2ccccc2)cc1C
2. CC1C2C(CCCO)=CC(C3C(=O)N(C(N)=O)C(=O)C23)N1Cc1cccc(OC(F)(F)F)c1 (configuration not stated)
3. CCOC(=O)C[C@H]1[C@H](OC(=O)Cc2ccc3c(c2)OCO3)[C@@H](NC(=O)CC(C)C)c2cc(OCCCO)ccc2N1C(=O)c1ccc2ccccc2n1

output:
1: 0.183; 2: 0.576; 3: 0.249

###

Tested on: Sam68 (KHDRBS1)
Assay: Sam68 small-molecule binders, primary screen, biochemical, small-molecule microarray, 635 nm fluorescence (AID 1125);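 also: score merges 667 nm channel intensity with signal to noise over triplicate slides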
Conditions: small-molecule microarray binding, higher = more signal
MEASURED_PROPERTY: composite z-score
Answers are plain numbers.

Study these solved cases before continuing.
input: Given `COCCOC(=O)N1C(=O)[C@@]2(c3ccccc31)[C@H](C(=O)Nc1nc3ccccc3s1)[C@H]1C(=O)O[C@H](c3ccccc3)[C@H](c3ccccc3)N1[C@@H]2c1ccccc1OCCO` , respond with its composite z-score.
output: 1.3

input: Given O=C1NC(=O)C2C1C=CC(C(O)c1ccc(F)cc1)N2Nc1ccc(Cl)cc1Cl (stereo not drawn) , respond with its composite z-score.
output: 0.246

Hey, can you go through the list below and give me composite z-score for every item?
1. COC(=O)Cn1c(C(=O)N(C)C)cc2c1C[C@H]1CN(C(=O)c3ccccc3)[C@@](Cc3ccccc3)(C(=O)OC)[C@@H]21
2. CCCCC(=C=CC[C@H](O)c1ccccc1OCCO)CCO
3. COc1ccc([Si](C)(C)[C@H]2[C@H](CC(=O)N(CCO)Cc3ccccc3)O[C@@]3(C(=O)N(c4ccccc4)c4ccccc43)[C@@H]2C)cc1

output:
1. -0.627
2. 0.597
3. 1.2

Hey, can you go through the list below and give me composite z-score for every item?
1. C[N+](C)(C)CCCC[C@@H]1NC(=O)[C@H]2C[C@@H](C(=O)NCCCCCN)[C@@H](c3ccc(O)cc3)N2C1=O
2. C=C(COC)C(=O)CC[C@H](OC(C)=O)c1ccccc1OCCO
3. COc1cccc(C)c1NC(=O)O[C@H]1[C@H](OC(=O)Nc2ccccc2)[C@@H](OC(=O)Nc2ccccc2)[C@@H](OC)O[C@@H]1CO
4. COc1ccc([Si](C)(C)[C@@H]2[C@@H](CC(=O)N3CCC[C@H]3CO)O[C@]3(C(=O)N(Cc4cccc(N5C(=O)c6cccc7cccc5c67)c4)c4ccccc43)[C@H]2C)cc1
5. CO[C@H]1O[C@H](CO)[C@@H](OC(=O)Nc2cccc(F)c2)[C@H](OC(=O)c2cc3ccccc3[nH]2)[C@H]1OC(=O)c1cc2ccccc2[nH]1

output:
1: 1.3; 2: 0.176; 3: 1.29; 4: 0.905; 5: -0.537

Hey, can you go through the list below and give me composite z-score for every item?
1. CCCCN1CC=CC23O[C@@H]4/C=C\CCC(C)OC(=O)C4[C@H]2C(=O)N(CCO)[C@@H]3C1=O (stereo partly drawn)
2. COc1ccc(-c2cc3c(c(CCc4ccccc4)n2)[Si](C(C)C)(C(C)C)O[C@H]3c2ccccc2)cn1
3. O=C1C[C@@](C(=O)NCC(F)(F)F)(c2ccc([N+](=O)[O-])cc2)[C@@H](c2ccc(CO)cc2I)N1CC12CC3CC(CC(C3)C1)C2
4. COC(=O)[C@@]1(Cc2ccc(F)cc2)[C@H]2c3cc(C(=O)N(C)C)n(Cc4ccc(C(F)(F)F)nc4)c3C[C@H]2CN1C(=O)c1ccccc1
5. C=CC[C@H](O)c1ccc(O)c2ccccc12
6. COC(=O)C(CC#Cc1ccc2c(c1)[C@]1(C(=O)N2)[C@H](c2ccccc2OCCO)N2[C@H](c3ccccc3)[C@H](c3ccccc3)OC(=O)[C@H]2[C@@H]1C(=O)N1CCN(c2ncccn2)CC1)C(=O)OC
7. [N-]=[N+]=Nc1ccccc1C[C@]1(C(=O)N2CCCCC2)N=C(c2ccc(OCCCO)cc2)O[C@H]1c1ccccc1
8. COC(=O)[C@@]1(Cc2ccc(F)cc2)[C@H]2c3cc(C(=O)N(C)C)n(CCF)c3C[C@H]2CN1C(=O)c1ccccc1

output:
[0.852, -0.605, 1.29, 1.33, 1.06, 1.31, 1.31, 0.706]
